test: Plasma concentration versus time of Compound I and metabolite Compound III in patients dosed QD or BID with Form B of Compound II plus fulvestrant
Assay type: in vivo, human
condition.description: human, plasma, oral, 650 mg, 650 mg QD of Form B, Day 1, 4.0 h, Median; read-out: Compound III Concentration
attribute.measured: concentration at 4 h (ng/mL)
Report the value in ng/mL with no unit label.

Tell me concentration at 4 h reported for O=C1NCC2(CCCCC2)n2c1cc1cnc(Nc3ccc(N4CCNCC4)cn3)nc12
9.22

====

test: Noncompartmental pharmacokinetic parameters (Cmax, Tmax, AUC, Racc) in QD and BID cohorts of Form B
Assay type: in vivo, human
condition.description: human, plasma, oral, 100 mg, Compound I; 100 mg BID of Form B; Cohort 6; Day 29; read-out: AUClast (Mean)
attribute.measured: AUC(0-t) (ng·h/mL)
Report the value in ng·h/mL with no unit label.

Tell me AUC(0-t) reported for CC(C)N1CCN(c2ccc(Nc3ncc4cc5n(c4n3)C3(CCCCC3)CNC5=O)nc2)CC1 [Compound I]
101

====

test: Plasma concentration versus time of Compound I and metabolite Compound III in patients dosed QD or BID with Form B of Compound II plus fulvestrant
Assay type: in vivo, human
condition.description: human, plasma, oral, 100 mg, Cohort 6, 100 mg BID of Form B, Day 8; read-out: Trough Compound III Concentration, Median
attribute.measured: concentration at 8 day (ng/mL)
Report the value in ng/mL with no unit label.

Tell me concentration at 8 day reported for O=C1NCC2(CCCCC2)n2c1cc1cnc(Nc3ccc(N4CCNCC4)cn3)nc12
0.481

====

test: Plasma concentration versus time of Compound I and metabolite Compound III in patients dosed QD or BID with Form B of Compound II plus fulvestrant
Format: in vivo, human
condition.description: human, plasma, oral, 500 mg, Cohort 4, 500 mg QD of Form B, Day 8; read-out: Trough Compound III Concentration, Mean
attribute.measured: concentration at 8 day (ng/mL)
Report the value in ng/mL with no unit label.

Tell me concentration at 8 day reported for O=C1NCC2(CCCCC2)n2c1cc1cnc(Nc3ccc(N4CCNCC4)cn3)nc12 [Compound III]
1.71

====

test: Noncompartmental pharmacokinetic parameters (Cmax, Tmax, AUC, Racc) in QD and BID cohorts of Form B
Type: in vivo, human
condition.description: human, plasma, oral, 200 mg, Compound I; 200 mg QD of Form B; Cohort 1; Day 29; read-out: Cmax (Median)
attribute.measured: Cmax

Tell me Cmax reported for CC(C)N1CCN(c2ccc(Nc3ncc4cc5n(c4n3)C3(CCCCC3)CNC5=O)nc2)CC1 [Compound I]
21.3 ng/mL

====

test: Noncompartmental pharmacokinetic parameters (Cmax, Tmax, AUC, Racc) in QD and BID cohorts of Form B
Assay type: in vivo, human
condition.description: human, plasma, oral, 650 mg, Compound III; 650 mg QD of Form B; Cohort 5; Day 1; read-out: Tmax (Median)
attribute.measured: Tmax (h)
Report the value in h with no unit label.

Tell me Tmax reported for O=C1NCC2(CCCCC2)n2c1cc1cnc(Nc3ccc(N4CCNCC4)cn3)nc12 [Compound III]
7

====

test: Noncompartmental pharmacokinetic parameters (Cmax, Tmax, AUC, Racc) in QD and BID cohorts of Form B
Assay type: in vivo, human
condition.description: human, plasma, oral, 200 mg, Compound III; 200 mg QD of Form B; Cohort 1; Day 1; read-out: Tmax (Median)
attribute.measured: Tmax (h)
Report the value in h with no unit label.

Tell me Tmax reported for O=C1NCC2(CCCCC2)n2c1cc1cnc(Nc3ccc(N4CCNCC4)cn3)nc12
4
